System: NCI-H1734
Experiment: relative viability (nuclei count vs DMSO), 5 days (fraction); higher = more cells survive
Details: first compound 4 µM
measured-quantity: relative viability
Format: numeric value only, no unit, no commentary.

// C[C@@H]1CN(CC(=O)Nc2ccc3c(c2)Cc2cccc(-c4cc(=O)cc(N5CCOCC5)o4)c2S3)C[C@H](C)O1 + C[C@]1(O)C[C@@H](c2nc(-c3ccc4ccc(-c5ccccc5)nc4c3)c3c(N)nccn32)C1 [Linsitinib] (partner 1 µM) : relative viability value = 0.92

// C[C@@H]1CN(CC(=O)Nc2ccc3c(c2)Cc2cccc(-c4cc(=O)cc(N5CCOCC5)o4)c2S3)C[C@H](C)O1 + COc1cc2c(Oc3ccc(NC(=O)C4(C(=O)Nc5ccc(F)cc5)CC4)cc3F)ccnc2cc1OCCCN1CCOCC1 [Foretinib] (partner 0.25 µM) : relative viability value = 0.976

// C[C@@H]1CN(CC(=O)Nc2ccc3c(c2)Cc2cccc(-c4cc(=O)cc(N5CCOCC5)o4)c2S3)C[C@H](C)O1 + CC(=O)c1c(C)c2cnc(Nc3ccc(N4CCNCC4)cn3)nc2n(C2CCCC2)c1=O [Palbociclib] (partner 0.5 µM) : relative viability value = 0.433

// Clc1ccc(Nc2nnc(Cc3ccncc3)c3ccccc23)cc1 [Vatalanib] + Nc1nc2[nH]cc(CCc3ccc(C(=O)N[C@@H](CCC(=O)O)C(=O)O)cc3)c2c(=O)[nH]1 [Pemetrexed] (partner 0.2 µM) : relative viability value = 0.379

// COc1cc(N2CCC(C(N)=O)CC2)ccc1Nc1nc(N)c(Cl)c(Nc2ccccc2S(=O)(=O)C(C)C)n1 [HG-5-88-01] + CC(C)C[C@H](NC(=O)[C@H](Cc1ccccc1)NC(=O)c1cnccn1)B(O)O [Bortezomib] (partner 0.002 µM) : relative viability value = 0.83

// COc1cc(N2CCC(C(N)=O)CC2)ccc1Nc1nc(N)c(Cl)c(Nc2ccccc2S(=O)(=O)C(C)C)n1 [HG-5-88-01] + Cc1nc(Nc2ncc(C(=O)Nc3c(C)cccc3Cl)s2)cc(N2CCN(CCO)CC2)n1 [Dasatinib] (partner 0.075 µM) : relative viability value = 0.284

// COc1cc(N2CCC(C(N)=O)CC2)ccc1Nc1nc(N)c(Cl)c(Nc2ccccc2S(=O)(=O)C(C)C)n1 [HG-5-88-01] + C[C@@H](Oc1cc(-c2cnn(C3CCNCC3)c2)cnc1N)c1c(Cl)ccc(F)c1Cl [Crizotinib] (partner 1 µM) : relative viability value = 0.64

// C[C@@H]1CN(CC(=O)Nc2ccc3c(c2)Cc2cccc(-c4cc(=O)cc(N5CCOCC5)o4)c2S3)C[C@H](C)O1 + Nc1ncn([C@H]2C[C@H](O)[C@@H](CO)O2)c(=O)n1 [Decitabine] (partner 2 µM) : relative viability value = 0.574
